Method Summary: Absorption kinetic: plasma concentration of BTG 1640 after oral gavage
Type: in vivo, rats Sprague Dawley
Protocol Conditions: Sprague Dawley, rat, in vivo, po, 10 mg/kg
Structures can show the parent of a compound that is named as a salt.
Reported Endpoint: concentration at 30 min (ng/mL)
# output: bare number, implied unit ng/mL

-- ask Can you look up the measured concentration at 30 min of CN1OC2CCCC(=O)C2C1Cc1ccccc1 (stereo not shown) [BTG 1640 fumarate] for me?
-- reply 838

----------
Method Summary: Stability test of BTG 1640 salts: evaluation of total impurities
Assay type: physicochemical
Protocol Conditions: T = 25° C., humidity 60% RH; time 3 (months)
Structures can show the parent of a compound that is named as a salt.
# reported % impurities; entries follow

>>> assay_value("CN1OC2CCCC(=O)C2C1Cc1ccccc1.O=C(O)CCC(=O)O (centres unmarked) [BTG 1640 succinate]")
"7.30%"
>>> assay_value("CN1OC2CCCC(=O)C2C1Cc1ccccc1.O=C(O)/C=C\\C(=O)O (centres unmarked) [BTG 1640 maleate]")
"0.22%"
>>> assay_value("CN1OC2CCCC(=O)C2C1Cc1ccccc1 (centres unmarked) [BTG 1640 fumarate]")
"0.10%"
>>> assay_value("CN1OC2CCCC(=O)C2C1Cc1ccccc1.Cl (centres unmarked) [BTG 1640 hydrochloride]")
"0.43%"

The record that follows has no % impurities shown yet.
-- ask Can you look up the measured % impurities of CN1OC2CCCC(=O)C2C1Cc1ccccc1.CS(=O)(=O)O (centres unmarked) [BTG 1640 methanesulphonate] for me?
-- reply 1.80%
